# System: HSV-1
# methodDescription: HSV-1 plaque assay (used for DHPG)
# Type: cell-based, herpes simplex virus 1
# testConditions: Human alphaherpesvirus 1; plaque assay used for DHPG instead of ELISA (footnote b); read-out: HSV-1 plaque assay 50% Inhibitory Concentration (IC50)
assayReadout: IC50 (µM)
Field: numeric (µM). Do not append units.

Looking for the measured IC50 of Nc1nc(O)c2ncn(COC(CO)CO)c2n1 [ganciclovir (DHPG), ganciclovir, reference compound] , can you help?
3.5

* * *

Measured IC50 at 48 h accompanies every entry in the list below.
# methodDescription: Inhibition of KB cell growth (crystal violet)
# Format: cell-based
# testConditions: human

Looking for the measured IC50 at 48 h of OC[C@H]1O[C@H](n2c(Cl)nc3cc(Cl)c(Cl)cc32)[C@@H](O)[C@H]1O , can you help?
> 100 µM

// repeat for OC[C@@H]1O[C@@H](n2c(Cl)nc3cc(Cl)c(Cl)cc32)[C@H](O)[C@@H]1O and report
> 100 µM

* * *

# methodDescription: Visual cytotoxicity in stationary HFF cells
# Type: cell-based
# testConditions: human
assayReadout: pIC50
Remember, pIC50 is on a log scale: it is -log10 of the molar concentration.

Looking for the measured pIC50 of OC[C@@H]1O[C@@H](n2c(Cl)nc3cc(Cl)c(Cl)cc32)[C@H](O)[C@@H]1O , can you help?
3.72

* * *

# Test system: HCMV Strain AD169
# methodDescription: HCMV plaque reduction assay, strain AD169
# Assay type: cell-based, Human cytomegalovirus
# testConditions: Human betaherpesvirus 5, Table 3, read-out: HCMV Strain AD169 plaque 50% Inhibitory Concentration (IC50)
assayReadout: IC50 (µM)
Field: numeric (µM). Do not append units.

compound: CC(C)Nc1nc2cc(Cl)c(Cl)cc2n1[C@@H]1O[C@@H](CO)[C@@H](O)[C@H]1O
assayTarget: HCMV Strain AD169
measuredResult: 11
--
compound: OC[C@@H]1O[C@@H](n2c(Br)nc3cc(Cl)c(Cl)cc32)[C@H](O)[C@@H]1O
assayTarget: HCMV Strain AD169
measuredResult: 0.8
--
compound: OC[C@H]1O[C@H](n2c(Cl)nc3cc(Cl)c(Cl)cc32)[C@@H](O)[C@H]1O
assayTarget: HCMV Strain AD169
measuredResult: 9
--
compound: OC[C@H]1O[C@@H](n2c(Cl)nc3cc(Cl)c(Cl)cc32)[C@H](O)[C@@H]1O [TCRB, reference compound]
assayTarget: HCMV Strain AD169
measuredResult: 1.8
--
compound: OC[C@@H]1O[C@@H](n2c(Cl)nc3cc(Cl)c(Cl)cc32)[C@H](O)[C@@H]1O
assayTarget: HCMV Strain AD169
measuredResult: 2.6

Looking for the measured IC50 of CC(C)Nc1nc2cc(Cl)c(Cl)cc2n1[C@H]1O[C@H](CO)[C@H](O)[C@@H]1O , can you help?
32

// repeat for OC[C@H]1O[C@H](n2c(Br)nc3cc(Cl)c(Cl)cc32)[C@@H](O)[C@H]1O and report
4.2
